- Test system: SK-N-SH
- method: Antiproliferative activity against human SK-N-SH cells assessed as cell growth inhibition by MTT assay
- Type: functional, cell-based
pIC50: −log10 of the molar value.
reported_metric: pIC50

test_smiles | target_of_assay | numeric_value
CCCCCCCCCCn1cc(/C=C/C(=O)c2ccc(NC(=O)CBr)cc2)nn1 | SK-N-SH | 5.06
CCCCCCCCn1cc(/C=C/C(=O)c2ccc(NC(=O)CBr)cc2)nn1 | SK-N-SH | 5.07
CCCCCCCCn1cc(/C=C/C(=O)c2ccc(NC(=O)CN3CCN(C(=O)OC(C)(C)C)CC3)cc2)nn1 | SK-N-SH | 4.42
CCCCCCCCCCn1cc(/C=C/C(=O)c2ccc(NC(=O)CN3CCN(C(=O)OC(C)(C)C)CC3)cc2)nn1 | SK-N-SH | 4.11
CCCCCCCCn1cc(/C=C/C(=O)c2ccc(N)cc2)nn1 | SK-N-SH | 4.54
CCCCCCCCn1cc(/C=C/C(=O)c2ccc(NC(=O)CN3CCN(c4ccc([N+](=O)[O-])cc4)CC3)cc2)nn1 | SK-N-SH | 4.29
COc1cccc2c1C(=O)c1c(O)c3c(c(O)c1C2=O)C[C@@](O)(C(=O)CO)C[C@@H]3O[C@H]1C[C@H](N)[C@H](O)[C@H](C)O1 | SK-N-SH | 5.55
O=C(CN1CCN(c2ccccc2)CC1)Nc1ccc(C(=O)/C=C/c2cn(Cc3ccc(Br)cc3)nn2)cc1 | SK-N-SH | 4.14
CCCCCCCCCCn1cc(/C=C/C(=O)c2ccc(NC(=O)CN3CCN(c4ccccc4)CC3)cc2)nn1 | SK-N-SH | 4.40
CCCCCCCCCCn1cc(/C=C/C(=O)c2ccc(NC(=O)CN3CCN(c4ccc([N+](=O)[O-])cc4)CC3)cc2)nn1 | SK-N-SH | 4.39
COc1ccccc1N1CCN(CC(=O)Nc2ccc(C(=O)/C=C/c3cn(Cc4ccc(Br)cc4)nn3)cc2)CC1 | SK-N-SH | 4.55
CCCCCCCCCCn1cc(/C=C/C(=O)c2ccc(NC(=O)CN3CCN(c4ccccc4F)CC3)cc2)nn1 | SK-N-SH | 4.46
CC(C)(C)OC(=O)N1CCN(CC(=O)Nc2ccc(C(=O)/C=C/c3cn(Cc4ccc(Br)cc4)nn3)cc2)CC1 | SK-N-SH | 4.59
CCCCCCCCCCn1cc(/C=C/C(=O)c2ccc(N)cc2)nn1 | SK-N-SH | 4.08
O=C(CBr)Nc1ccc(C(=O)/C=C/c2cn(Cc3ccc(Br)cc3)nn2)cc1 | SK-N-SH | 5.08
CCCCCCCCn1cc(/C=C/C(=O)c2ccc(NC(=O)CN3CCC(Cc4ccccc4)CC3)cc2)nn1 | SK-N-SH | 4.24
CCCCCCCCCCn1cc(/C=C/C(=O)c2ccc(NC(=O)CN3CCC(Cc4ccccc4)CC3)cc2)nn1 | SK-N-SH | 4.48
O=C(CN1CCC(Cc2ccccc2)CC1)Nc1ccc(C(=O)/C=C/c2cn(Cc3ccc(Br)cc3)nn2)cc1 | SK-N-SH | 4.37
CCCCCCCCCCn1cc(/C=C/C(=O)c2ccc(NC(=O)CN3CCN(c4ccccc4OC)CC3)cc2)nn1 | SK-N-SH | 4.06
CCCCCCCCn1cc(/C=C/C(=O)c2ccc(NC(=O)CN3CCN(c4ccccc4)CC3)cc2)nn1 | SK-N-SH | 4.38
O=C(CN1CCN(c2ccccc2F)CC1)Nc1ccc(C(=O)/C=C/c2cn(Cc3ccc(Br)cc3)nn2)cc1 | SK-N-SH | 4.89
Nc1ccc(C(=O)/C=C/c2cn(Cc3ccc(Br)cc3)nn2)cc1 | SK-N-SH | 4.60
CCCCCCCCn1cc(/C=C/C(=O)c2ccc(NC(=O)CN3CCN(c4ccccc4OC)CC3)cc2)nn1 | SK-N-SH | 4.67
CCCCCCCCn1cc(/C=C/C(=O)c2ccc(NC(=O)CN3CCN(c4ccccc4F)CC3)cc2)nn1 | SK-N-SH | 4.22
O=C(CN1CCN(c2ccc([N+](=O)[O-])cc2)CC1)Nc1ccc(C(=O)/C=C/c2cn(Cc3ccc(Br)cc3)nn2)cc1 | SK-N-SH | 4.58

Values were extracted from ChEMBL document CHEMBL4622939.
